Known protein stability index of a selection of variants
B1: GAGE1 (parent)
chain: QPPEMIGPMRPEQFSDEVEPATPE

Variants of: B1
Experiment: protein stability index of a GFP-peptide fusion (GPS, HEK-293T) (PSI 1-6); higher = more stable;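 further: lentivirally expressed fusions sorted by FACS into six bins by GFP to DsRed ratio, PSI derived from sequencing read proportions per bin multiplied by bin number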
Conditions: c terminus: a fixed tail appended
The response must contain the number and no unit.

[[record]]
residue_codes = "QPPEMIMPMRPEQFSDEVEPATPE [G7M]"
observed_result = 5.55

[[record]]
residue_codes = "QPPEMIGPMRPEQWSDEVEPATPE [F14W]"
observed_result = 5.65

[[record]]
residue_codes = "APPEMIGPMRPEQFSDEVEPATPE [Q1A]"
observed_result = 4.84

[[record]]
residue_codes = "QPPEMIGPMLPEQFSDEVEPATPE [R10L]"
observed_result = 4.37

[[record]]
residue_codes = "QPPEMIGPMRPEQFSDEVEPATWE [P23W]"
observed_result = 4.41

[[record]]
residue_codes = "QPPEMPGPMRPEQFSDEVEPATPE [I6P]"
observed_result = 5.52


For the variant shown here, QPPEMYGPMRPEQFSDEVEPATPE [I6Y] , give the reported protein stability index.
5.65

For the variant shown here, QPPEMIGPMRPTQFSDEVEPATPE [E12T] , give the reported protein stability index.
5.58

For the variant shown here, QPPEMNGPMRPEQFSDEVEPATPE [I6N] , give the reported protein stability index.
5.72

For the variant shown here, QPPEMDGPMRPEQFSDEVEPATPE [I6D] , give the reported protein stability index.
5.79

For the variant shown here, QPPEMIGPMRPEQFSDEVEPATNE [P23N] , give the reported protein stability index.
5.26

For the variant shown here, QPPPMIGPMRPEQFSDEVEPATPE [E4P] , give the reported protein stability index.
5.56

For the variant shown here, QPPEMIGPMRPEQFSDEVEPKTPE [A21K] , give the reported protein stability index.
5.32

For the variant shown here, QPPEMIGPMRPEQFSDEVEPLTPE [A21L] , give the reported protein stability index.
4.9

For the variant shown here, QPPEMIGPMRPEQFSDEVEPATVE [P23V] , give the reported protein stability index.
4.5

For the variant shown here, QPPEMIGPMRPEQFSDEVEPATPS [E24S] , give the reported protein stability index.
4.65

For the variant shown here, VPPEMIGPMRPEQFSDEVEPATPE [Q1V] , give the reported protein stability index.
4.68

For the variant shown here, QPPEMIGPMRPEQNSDEVEPATPE [F14N] , give the reported protein stability index.
5.87

For the variant shown here, QPPEMIGLMRPEQFSDEVEPATPE [P8L] , give the reported protein stability index.
5.52

For the variant shown here, QPPEMIGKMRPEQFSDEVEPATPE [P8K] , give the reported protein stability index.
5.46

For the variant shown here, GPPEMIGPMRPEQFSDEVEPATPE [Q1G] , give the reported protein stability index.
4.64

For the variant shown here, QPPEMIGPMRPEWFSDEVEPATPE [Q13W] , give the reported protein stability index.
5.36

Hello, the source for this data is the supplement of paper PMC10567573, in case you need it.
